- EXPERIMENT DESCRIPTION: Tmax in Wistar rat plasma at 2 mg/kg, po
- Type: ADME, organism-based

{"columns": ["COMPOUND", "Tmax, min"],
 "data": [
  ["O=C(Nc1ccc(F)cc1)N1N=C(c2ccncc2)CC1c1ccc(F)cc1 (stereo unspecified)", 15]
]}

* * *

- SYSTEM NAME: Voltage-dependent T-type calcium channel subunit alpha-1H (Homo sapiens, UniProt O95180)
- Sequence (O95180 whole entry): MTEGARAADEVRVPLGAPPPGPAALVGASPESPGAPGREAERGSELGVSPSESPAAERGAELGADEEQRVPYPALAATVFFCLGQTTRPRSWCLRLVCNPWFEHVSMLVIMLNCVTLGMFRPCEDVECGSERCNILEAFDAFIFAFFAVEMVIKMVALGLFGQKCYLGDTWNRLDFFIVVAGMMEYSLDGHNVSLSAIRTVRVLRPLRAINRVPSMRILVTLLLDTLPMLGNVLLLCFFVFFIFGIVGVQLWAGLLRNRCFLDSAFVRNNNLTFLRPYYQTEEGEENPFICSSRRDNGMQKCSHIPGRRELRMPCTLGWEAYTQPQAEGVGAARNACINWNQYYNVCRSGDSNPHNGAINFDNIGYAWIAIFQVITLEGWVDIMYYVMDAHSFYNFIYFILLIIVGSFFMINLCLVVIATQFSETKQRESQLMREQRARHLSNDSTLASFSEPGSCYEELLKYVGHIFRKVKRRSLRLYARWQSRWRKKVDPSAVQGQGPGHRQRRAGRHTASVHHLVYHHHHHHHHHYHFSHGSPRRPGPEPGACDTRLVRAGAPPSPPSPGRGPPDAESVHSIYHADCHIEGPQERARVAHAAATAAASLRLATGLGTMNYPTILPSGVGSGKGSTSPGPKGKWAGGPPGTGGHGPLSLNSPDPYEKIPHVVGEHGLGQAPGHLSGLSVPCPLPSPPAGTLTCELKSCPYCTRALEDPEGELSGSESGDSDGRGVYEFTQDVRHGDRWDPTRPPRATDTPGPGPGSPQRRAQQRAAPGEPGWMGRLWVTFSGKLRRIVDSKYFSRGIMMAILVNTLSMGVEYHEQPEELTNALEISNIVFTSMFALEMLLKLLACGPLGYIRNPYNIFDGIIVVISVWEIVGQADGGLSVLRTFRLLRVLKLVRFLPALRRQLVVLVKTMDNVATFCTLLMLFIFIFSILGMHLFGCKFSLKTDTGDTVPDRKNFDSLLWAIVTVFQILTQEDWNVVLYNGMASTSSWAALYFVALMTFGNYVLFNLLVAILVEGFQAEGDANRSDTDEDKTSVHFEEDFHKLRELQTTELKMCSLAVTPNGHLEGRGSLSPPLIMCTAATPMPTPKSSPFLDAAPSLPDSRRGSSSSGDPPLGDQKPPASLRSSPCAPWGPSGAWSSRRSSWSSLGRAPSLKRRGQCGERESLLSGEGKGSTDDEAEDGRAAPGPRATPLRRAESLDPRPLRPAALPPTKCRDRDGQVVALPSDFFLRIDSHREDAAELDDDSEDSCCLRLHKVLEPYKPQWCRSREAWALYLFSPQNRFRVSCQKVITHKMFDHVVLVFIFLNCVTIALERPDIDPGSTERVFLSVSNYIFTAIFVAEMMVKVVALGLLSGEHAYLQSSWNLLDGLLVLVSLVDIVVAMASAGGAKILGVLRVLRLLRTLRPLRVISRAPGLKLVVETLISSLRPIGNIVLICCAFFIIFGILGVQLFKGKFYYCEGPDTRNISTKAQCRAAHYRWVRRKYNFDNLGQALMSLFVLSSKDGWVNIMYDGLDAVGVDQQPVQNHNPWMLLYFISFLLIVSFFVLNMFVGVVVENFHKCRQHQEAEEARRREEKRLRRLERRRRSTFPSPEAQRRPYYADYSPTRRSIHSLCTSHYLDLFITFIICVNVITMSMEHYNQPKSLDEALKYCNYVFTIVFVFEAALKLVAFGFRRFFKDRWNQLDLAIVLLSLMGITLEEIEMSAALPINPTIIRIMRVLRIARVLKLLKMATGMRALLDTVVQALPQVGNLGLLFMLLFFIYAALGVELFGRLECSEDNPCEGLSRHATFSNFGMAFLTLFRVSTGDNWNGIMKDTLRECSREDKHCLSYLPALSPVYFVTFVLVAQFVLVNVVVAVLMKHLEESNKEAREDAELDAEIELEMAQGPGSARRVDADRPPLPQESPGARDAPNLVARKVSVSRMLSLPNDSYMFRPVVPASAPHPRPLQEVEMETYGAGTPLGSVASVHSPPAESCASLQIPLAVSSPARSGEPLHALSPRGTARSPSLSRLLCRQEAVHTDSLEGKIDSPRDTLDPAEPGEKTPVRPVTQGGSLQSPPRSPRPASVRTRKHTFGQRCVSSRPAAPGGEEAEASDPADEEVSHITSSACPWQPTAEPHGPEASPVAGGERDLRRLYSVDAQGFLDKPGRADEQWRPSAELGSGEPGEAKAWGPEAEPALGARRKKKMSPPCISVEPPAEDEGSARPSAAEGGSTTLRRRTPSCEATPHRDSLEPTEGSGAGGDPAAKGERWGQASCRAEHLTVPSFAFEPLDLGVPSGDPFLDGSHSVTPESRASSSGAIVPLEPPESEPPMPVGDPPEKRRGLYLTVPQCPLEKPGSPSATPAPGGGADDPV
- EXPERIMENT DESCRIPTION: Inhibition of recombinant T-type calcium channel Cav3.2 (unknown origin) expressed in HEK293 cells assessed as inhibition of CaCl2-induced calcium influx preincubated for 3 mins prior CaCl2 addition by Fluo-4-AM dye-based FLIPR assay
- Assay type: cell-based

{"columns": ["COMPOUND", "SYSTEM NAME", "READOUT UNIT", "OPERATOR SYMBOL", "IC50"],
 "data": [
  ["COCC1(c2ccc(C)cc2)CC(c2ccccc2)=NN1C(=O)Nc1ccc(F)cc1 (stereo not given)", "Voltage-dependent T-type calcium channel subunit alpha-1H (Homo sapiens, UniProt O95180)", "nM", "=", 350],
  ["COCCOc1ccc(C2(CCO)CC(c3ccccc3)=NN2C(=O)Nc2ccc(F)cc2)cc1 (stereo not given)", "Voltage-dependent T-type calcium channel subunit alpha-1H (Homo sapiens, UniProt O95180)", "nM", "=", 60],
  ["COc1ccc([C@@]2(CCO)CC(c3cccnc3)=NN2C(=O)Nc2ccc(Br)cc2)cc1", "Voltage-dependent T-type calcium channel subunit alpha-1H (Homo sapiens, UniProt O95180)", "nM", ">", 10000],
  ["COc1ccc(C2=NN(C(=O)Nc3ccc(Cl)cc3)[C@](CCO)(c3cccnc3)C2)cc1", "Voltage-dependent T-type calcium channel subunit alpha-1H (Homo sapiens, UniProt O95180)", "nM", "=", 55],
  ["CC(C)NC(=O)N1N=C(c2ccc(Br)cc2)CC1c1ccc(F)cc1 (stereo not given)", "Voltage-dependent T-type calcium channel subunit alpha-1H (Homo sapiens, UniProt O95180)", "nM", "=", 382]
]}

* * *

- EXPERIMENT DESCRIPTION: Fraction unbound in rat plasma
- Format: ADME, cell-free

{"columns": ["MOLECULE", "fraction unbound"],
 "data": [
  ["O=C(Nc1ccc(F)cc1)N1N=C(c2ccncc2)CC1c1ccc(F)cc1 (stereo unspecified)", 0.03]
]}

* * *

- EXPERIMENT DESCRIPTION: Aqueous solubility of the compound at pH 4 by UV-HPLC method
- Format: physicochemical
Overview of reported solubility across a group of compounds:

{"columns": ["COMPOUND", "READOUT UNIT", "OPERATOR SYMBOL", "solubility"],
 "data": [
  ["O=C(Nc1ccc(F)cc1)N1N=C(c2ccc(Br)cc2)CC1c1ccc(F)cc1 (configuration not stated)", "µg/mL", "<", 1],
  ["Cc1ccc(C2(CCN3CCN(C)CC3)CC(c3ccccc3)=NN2C(=O)Nc2ccc(F)cc2)cc1 (configuration not stated)", "µg/mL", "=", 477],
  ["Cc1ccc(C2(CCN(C)C)CC(c3ccccc3)=NN2C(=O)Nc2ccc(F)cc2)cc1 (configuration not stated)", "µg/mL", "=", 42],
  ["O=C(Nc1ccccc1F)N1N=C(c2ccc(Br)cc2)CC1c1ccc(F)cc1 (configuration not stated)", "µg/mL", "<", 1],
  ["O=C(Nc1ccc(F)cc1)N1N=C(c2ccncc2)CC1c1ccc(F)cc1 (configuration not stated)", "µg/mL", "=", 33],
  ["COCCOc1ccc(C2(CCO)CC(c3ccccc3)=NN2C(=O)Nc2ccc(F)cc2)cc1 (configuration not stated)", "µg/mL", "=", 8],
  ["CS(=O)(=O)c1ccc(C2CC(c3ccccc3)=NN2C(=O)Nc2ccc(F)cc2)cc1 (configuration not stated)", "µg/mL", "<", 1],
  ["Cc1ccc(C2(CCO)CC(c3ccncc3)=NN2C(=O)Nc2ccc(F)cc2)cc1 (configuration not stated)", "µg/mL", "=", 193],
  ["Cc1ccc(C2(CCN3CCOCC3)CC(c3ccccc3)=NN2C(=O)Nc2ccc(F)cc2)cc1 (configuration not stated)", "µg/mL", "=", 371],
  ["COc1ccc(C2=NN(C(=O)Nc3ccc(Cl)cc3)[C@](CCO)(c3cccnc3)C2)cc1", "µg/mL", "=", 27],
  ["O=C(Nc1ccc(F)cc1)N1N=C(c2ccccc2)CC1c1ccc(F)cc1 (configuration not stated)", "µg/mL", "<", 1],
  ["COc1ccc(NC(=O)N2N=C(c3ccc(Br)cc3)CC2c2ccc(F)cc2)cc1 (configuration not stated)", "µg/mL", "<", 1]
]}

* * *

- EXPERIMENT DESCRIPTION: Aqueous solubility of the compound at pH 7 by UV-HPLC method
- Format: physicochemical
Returns one of y or n; y when solubility is >= 10 µg/mL.

{"columns": ["COMPOUND", "LABEL CLASS"],
 "data": [
  ["Cc1ccc(C2(CCN(C)C)CC(c3ccccc3)=NN2C(=O)Nc2ccc(F)cc2)cc1 (configuration not stated)", "y"],
  ["Cc1ccc(C2(CCN3CCOCC3)CC(c3ccccc3)=NN2C(=O)Nc2ccc(F)cc2)cc1 (configuration not stated)", "n"],
  ["COc1ccc(C2=NN(C(=O)Nc3ccc(Cl)cc3)[C@](CCO)(c3cccnc3)C2)cc1", "y"],
  ["Cc1ccc(C2(CCO)CC(c3ccncc3)=NN2C(=O)Nc2ccc(F)cc2)cc1 (configuration not stated)", "y"],
  ["COCCOc1ccc(C2(CCO)CC(c3ccccc3)=NN2C(=O)Nc2ccc(F)cc2)cc1 (configuration not stated)", "n"],
  ["Cc1ccc(C2(CCN3CCN(C)CC3)CC(c3ccccc3)=NN2C(=O)Nc2ccc(F)cc2)cc1 (configuration not stated)", "y"],
  ["COc1ccc(NC(=O)N2N=C(c3ccc(Br)cc3)CC2c2ccc(F)cc2)cc1 (configuration not stated)", "n"],
  ["CS(=O)(=O)c1ccc(C2CC(c3ccccc3)=NN2C(=O)Nc2ccc(F)cc2)cc1 (configuration not stated)", "n"],
  ["O=C(Nc1ccc(F)cc1)N1N=C(c2ccccc2)CC1c1ccc(F)cc1 (configuration not stated)", "n"],
  ["O=C(Nc1ccccc1F)N1N=C(c2ccc(Br)cc2)CC1c1ccc(F)cc1 (configuration not stated)", "n"],
  ["O=C(Nc1ccc(F)cc1)N1N=C(c2ccccc2)CC1(CO)c1ccc(F)cc1 (configuration not stated)", "n"],
  ["O=C(Nc1ccc(F)cc1)N1N=C(c2ccncc2)CC1c1ccc(F)cc1 (configuration not stated)", "n"]
]}

* * *

- EXPERIMENT DESCRIPTION: Oral bioavailability in Wistar rat plasma at 2 mg/kg administered 2 hrs after aminobenzotriazol-treatment
- Format: ADME, organism-based
ASSAY METRIC: bioavailability (%)

{"columns": ["COMPOUND", "ASSAY METRIC", "DATA VALUE"],
 "data": [
  ["O=C(Nc1ccc(F)cc1)N1N=C(c2ccncc2)CC1c1ccc(F)cc1 (stereo unspecified)", "bioavailability", 100]
]}

* * *

- EXPERIMENT DESCRIPTION: Drug uptake in Wistar rat brain at 10 mg/kg, po measured after 1 hr
- Assay type: ADME, organism-based
- CONDITION: read-out: Drug uptake
ASSAY METRIC: concentration at 1 h (nM)

{"columns": ["COMPOUND", "READOUT UNIT", "DATA VALUE"],
 "data": [
  ["O=C(Nc1ccc(F)cc1)N1N=C(c2ccncc2)CC1c1ccc(F)cc1 (stereo unspecified)", "nM", 800]
]}

* * *

- SYSTEM NAME: Voltage-dependent T-type calcium channel subunit alpha-1I (Homo sapiens)
- Sequence (Q9P0X4 whole entry): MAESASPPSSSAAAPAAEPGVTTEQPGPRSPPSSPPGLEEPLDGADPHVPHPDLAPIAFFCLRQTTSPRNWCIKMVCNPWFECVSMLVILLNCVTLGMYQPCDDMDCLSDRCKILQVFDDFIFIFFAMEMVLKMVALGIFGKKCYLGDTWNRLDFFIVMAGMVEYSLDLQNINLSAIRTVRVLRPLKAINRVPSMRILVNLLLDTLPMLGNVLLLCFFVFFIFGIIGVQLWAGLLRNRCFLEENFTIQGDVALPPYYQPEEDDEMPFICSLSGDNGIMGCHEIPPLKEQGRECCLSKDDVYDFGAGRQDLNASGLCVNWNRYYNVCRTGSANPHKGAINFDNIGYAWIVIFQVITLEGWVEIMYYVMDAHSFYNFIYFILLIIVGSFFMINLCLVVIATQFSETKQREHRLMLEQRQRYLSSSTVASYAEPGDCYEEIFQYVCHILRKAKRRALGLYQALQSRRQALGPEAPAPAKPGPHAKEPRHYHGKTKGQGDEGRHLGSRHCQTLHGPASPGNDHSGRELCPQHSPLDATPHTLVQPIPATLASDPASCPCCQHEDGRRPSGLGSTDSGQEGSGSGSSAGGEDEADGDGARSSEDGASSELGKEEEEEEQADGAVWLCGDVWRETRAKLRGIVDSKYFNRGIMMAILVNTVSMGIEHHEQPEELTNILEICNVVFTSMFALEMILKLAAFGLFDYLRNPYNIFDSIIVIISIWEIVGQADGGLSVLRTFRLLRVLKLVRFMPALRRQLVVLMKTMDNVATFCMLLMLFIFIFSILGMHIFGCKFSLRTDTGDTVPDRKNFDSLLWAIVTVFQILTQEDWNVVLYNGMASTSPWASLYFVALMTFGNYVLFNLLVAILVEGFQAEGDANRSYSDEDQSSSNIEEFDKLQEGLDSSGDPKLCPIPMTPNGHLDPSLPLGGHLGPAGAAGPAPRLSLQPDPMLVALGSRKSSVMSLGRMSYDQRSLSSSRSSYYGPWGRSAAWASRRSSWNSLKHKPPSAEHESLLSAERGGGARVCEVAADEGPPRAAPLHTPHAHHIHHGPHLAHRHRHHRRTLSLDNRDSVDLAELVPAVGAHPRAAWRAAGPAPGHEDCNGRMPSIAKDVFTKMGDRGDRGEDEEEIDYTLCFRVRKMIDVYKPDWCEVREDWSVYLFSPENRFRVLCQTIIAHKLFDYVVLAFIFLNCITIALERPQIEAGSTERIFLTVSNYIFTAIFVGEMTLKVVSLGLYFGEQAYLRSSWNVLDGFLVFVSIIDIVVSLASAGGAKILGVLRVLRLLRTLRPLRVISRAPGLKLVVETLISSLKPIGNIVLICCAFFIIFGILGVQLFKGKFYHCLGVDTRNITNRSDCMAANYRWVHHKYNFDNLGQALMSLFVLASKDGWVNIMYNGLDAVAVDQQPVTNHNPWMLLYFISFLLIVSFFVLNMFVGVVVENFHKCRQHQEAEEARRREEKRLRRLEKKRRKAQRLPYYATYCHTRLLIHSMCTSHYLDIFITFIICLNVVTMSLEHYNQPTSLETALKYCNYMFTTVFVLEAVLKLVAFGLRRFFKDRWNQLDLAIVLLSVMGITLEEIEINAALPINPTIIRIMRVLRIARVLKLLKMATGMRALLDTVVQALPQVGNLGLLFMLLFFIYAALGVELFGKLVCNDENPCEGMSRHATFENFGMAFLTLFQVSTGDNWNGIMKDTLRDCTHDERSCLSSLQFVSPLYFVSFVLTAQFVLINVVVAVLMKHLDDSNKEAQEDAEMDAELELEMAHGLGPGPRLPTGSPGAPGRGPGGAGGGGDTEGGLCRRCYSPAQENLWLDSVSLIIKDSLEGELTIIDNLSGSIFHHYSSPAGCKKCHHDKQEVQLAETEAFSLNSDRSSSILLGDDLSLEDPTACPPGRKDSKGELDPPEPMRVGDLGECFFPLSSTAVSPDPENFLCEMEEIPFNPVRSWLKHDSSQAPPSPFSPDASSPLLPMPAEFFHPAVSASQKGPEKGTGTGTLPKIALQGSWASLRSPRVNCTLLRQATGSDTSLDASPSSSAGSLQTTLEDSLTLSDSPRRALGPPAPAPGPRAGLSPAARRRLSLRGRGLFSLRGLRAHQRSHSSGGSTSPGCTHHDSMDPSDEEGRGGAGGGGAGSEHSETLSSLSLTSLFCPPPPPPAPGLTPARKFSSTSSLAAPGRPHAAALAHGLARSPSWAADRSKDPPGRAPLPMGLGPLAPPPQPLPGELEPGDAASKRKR
- EXPERIMENT DESCRIPTION: Inhibition of human T-type calcium channel Cav3.3 expressed in CHO cells assessed as inhibition of calcium tail current at -90 mV holding potential measured after 150 secs by QPatch assay
- Type: cell-based

{"columns": ["COMPOUND", "IC50 [µM]"],
 "data": [
  ["O=C(Nc1ccc(F)cc1)N1N=C(c2ccncc2)CC1c1ccc(F)cc1 (stereo unspecified)", 7]
]}

The measured values listed here are drawn from ChEMBL document CHEMBL3853331.
